Recorded % MeCN at Elution, Supelco Discovery by entry
Assay: Hydrophobicity by retention in analytical RP-HPLC (% MeCN at peak elution)
Format: physicochemical
Conditions: Supelco Discovery BIO Wide pore C18 column; gradient 0→60% B during 15 min

compound | % MeCN at Elution, Supelco Discovery
NCCCC[C@H](NC(=O)CCN(Cc1ccc(F)cc1)C(=O)[C@H](CCCCN)NC(=O)CCN(Cc1ccc(F)cc1)C(=O)[C@H](CCCCN)NC(=O)COCCOCCN)C(=O)N(CCC(=O)NCCOCCOCC(=O)N[C@@H](CCCCN)C(=O)N(CCC(=O)N[C@@H](CCCCN)C(=O)N(CCC(=O)N[C@@H](CCCCN)C(=O)N(CCC(=O)NCCOCCOCC(N)=O)Cc1ccc(F)cc1)Cc1ccc(F)cc1)Cc1ccc(F)cc1)Cc1ccc(F)cc1 [Compound 12, H-sPEG2-[X]3-sPEG2-[X]3-sPEG2-NH2] | 41.3 % MeCN
NCCCC[C@H](NC(=O)CCN(Cc1ccc(F)cc1)C(=O)[C@H](CCCCN)NC(=O)CCN(Cc1ccc(F)cc1)C(=O)[C@H](CCCCN)NC(=O)COCCN)C(=O)N(CCC(=O)NCCOCC(=O)N[C@@H](CCCCN)C(=O)N(CCC(=O)N[C@@H](CCCCN)C(=O)N(CCC(=O)N[C@@H](CCCCN)C(=O)N(CCC(=O)NCCOCC(N)=O)Cc1ccc(F)cc1)Cc1ccc(F)cc1)Cc1ccc(F)cc1)Cc1ccc(F)cc1 [Compound 11, H-sPEG1-[X]3-sPEG1-[X]3-sPEG1-NH2] | 40.8 % MeCN

====

Recorded % MeCN at Elution, Supelco Discovery by entry
Assay: Hydrophobicity by retention in analytical RP-HPLC (% MeCN at peak elution)
Type: physicochemical
Settings: Supelco Discovery BIO Wide pore C18 column; gradient 0→60% B during 15 min

molecule | % MeCN at Elution, Supelco Discovery, % MeCN
NCCCC[C@H](NC(=O)CCN(Cc1ccc(F)cc1)C(=O)[C@H](CCCCN)NC(=O)CCN(Cc1ccc(F)cc1)C(=O)[C@H](CCCCN)NC(=O)CCOCCOCCOCCOCCOCCOCCNC(=O)CCN(Cc1ccc(F)cc1)C(=O)[C@H](CCCCN)NC(=O)CCN(Cc1ccc(F)cc1)C(=O)[C@H](CCCCN)NC(=O)CCN(Cc1ccc(F)cc1)C(=O)[C@@H](N)CCCCN)C(=O)N(CCC(N)=O)Cc1ccc(F)cc1 [Compound 10, H-[X]3-sPEG6-[X]3-NH2] | 42.5
NCCCC[C@H](NC(=O)CCN(Cc1ccc(F)cc1)C(=O)[C@H](CCCCN)NC(=O)CCN(Cc1ccc(F)cc1)C(=O)[C@H](CCCCN)NC(=O)CCN(Cc1ccc(F)cc1)C(=O)[C@H](CCCCN)NC(=O)CCN(Cc1ccc(F)cc1)C(=O)[C@H](CCCCN)NC(=O)CCN(Cc1ccc(F)cc1)C(=O)[C@@H](N)CCCCN)C(=O)N(CCC(N)=O)Cc1ccc(F)cc1 [Compound 1, H-[Lys-βNPhe(4-F)]6-NH2] | 41.7
NCCCC[C@H](NC(=O)CCN(Cc1ccc(F)cc1)C(=O)[C@H](CCCCN)NC(=O)CCN(Cc1ccc(F)cc1)C(=O)[C@H](CCCCN)NC(=O)COCCOCCOCCN)C(=O)N(CCC(=O)NCCOCCOCCOCC(=O)N[C@@H](CCCCN)C(=O)N(CCC(=O)N[C@@H](CCCCN)C(=O)N(CCC(=O)N[C@@H](CCCCN)C(=O)N(CCC(=O)NCCOCCOCCOCC(N)=O)Cc1ccc(F)cc1)Cc1ccc(F)cc1)Cc1ccc(F)cc1)Cc1ccc(F)cc1 [Compound 13, H-sPEG3-[X]3-sPEG3-[X]3-sPEG3-NH2] | 42.1
NCCCC[C@H](NC(=O)CCN(Cc1ccc(F)cc1)C(=O)[C@H](CCCCN)NC(=O)CCN(Cc1ccc(F)cc1)C(=O)[C@H](CCCCN)NC(=O)CCN(Cc1ccc(F)cc1)C(=O)[C@H](CCCCN)NC(=O)CCN(Cc1ccc(F)cc1)C(=O)[C@H](CCCCN)NC(=O)CCN(Cc1ccc(F)cc1)C(=O)[C@H](CCCCN)NC(=O)COCCOCCN)C(=O)N(CCC(N)=O)Cc1ccc(F)cc1 [Compound 2, H-sPEG2-[X]6-NH2] | 41.5
NCCCC[C@H](NC(=O)CCN(Cc1ccc(F)cc1)C(=O)[C@H](CCCCN)NC(=O)CCN(Cc1ccc(F)cc1)C(=O)[C@H](CCCCN)NC(=O)CCN(Cc1ccc(F)cc1)C(=O)[C@H](CCCCN)NC(=O)CCN(Cc1ccc(F)cc1)C(=O)[C@H](CCCCN)NC(=O)CCN(Cc1ccc(F)cc1)C(=O)[C@H](CCCCN)NC(=O)COCCOCCN)C(=O)N(CCC(=O)NCCOCCOCC(N)=O)Cc1ccc(F)cc1 [Compound 4, H-sPEG2-[X]6-sPEG2-NH2] | 41.4
